# Protocol Summary: Binding affinity for sigma-1 site over dopamine receptor D1 in rat using [3H]SCH-23390 as radioligand
Entries and their Ki

# Record Smiles, Relation Sign, Ki, µM
measured = [
    ("O=C(OCCCN1CCC(c2ccccc2)CC1)C1(c2ccccc2)CCCC1", "=", 10),
    ("COc1ccc(C2(C(=O)OCCCN3CCC(c4ccccc4)CC3)CCCC2)cc1", "=", 6),
    ("O=C(OCCN1CCC(c2ccccc2)CC1)C1(c2ccc(I)cc2)CCCC1", ">", 1),
    ("O=C(OCCN1CCC(c2ccccc2)CC1)C1(c2ccc([N+](=O)[O-])cc2)CCCC1", "=", 2.9),
    ("Cc1ccccc1NC(=N)Nc1ccccc1C", ">", 5),
    ("O=C(OCCCCN1CCC(c2ccccc2)CC1)C1(c2ccccc2)CCCC1", "=", 3.1),
    ("O=C(OCCN1CCC(c2ccccc2)CC1)C1(c2ccccc2)CCCC1", "=", 4.9),
    ("O=C(OCCN1CCN(c2ccccc2)CC1)C1(c2ccc([N+](=O)[O-])cc2)CCCC1", "=", 1),
    ("O=C(OCCN1CCN(c2ccccc2)CC1)C1(c2ccc(I)cc2)CCCC1", "=", 0.65),
    ("N#Cc1ccc(C2(C(=O)OCCN3CCC(c4ccccc4)CC3)CCCC2)cc1", ">", 1),
]

Numbers sourced from ChEMBL document CHEMBL1127555.
